Target: Carbonic anhydrase 2 (Homo sapiens)
Would you mind telling me the reported Ki of each entry?
One number for each entry, in nM.

// below: answered compounds
CC(=O)OC[C@H]1O[C@@H](S(=O)(=O)NCCc2ccc(S(N)(=O)=O)cc2)[C@H](OC(C)=O)[C@@H](OC(C)=O)[C@@H]1O[C@H]1O[C@H](COC(C)=O)[C@@H](OC(C)=O)[C@H](OC(C)=O)[C@H]1OC(C)=O
15.2
NS(=O)(=O)c1ccc(CNS(=O)(=O)[C@@H]2O[C@H](CO)[C@@H](O[C@H]3O[C@H](CO)[C@@H](O)[C@H](O)[C@H]3O)[C@H](O)[C@H]2O)cc1
4.8
CC(=O)OC[C@H]1O[C@@H](O[C@H]2[C@H](OC(C)=O)[C@@H](OC(C)=O)[C@H](S(=O)(=O)NCCc3ccc(S(N)(=O)=O)cc3)O[C@@H]2COC(C)=O)[C@H](OC(C)=O)[C@@H](OC(C)=O)[C@H]1OC(C)=O
56.2

Lab note: each compound below needs its Ki filled in.
1. NS(=O)(=O)c1ccc(CCNS(=O)(=O)[C@@H]2O[C@H](CO)[C@H](O)[C@H](O)[C@H]2O)cc1
2. NS(=O)(=O)c1ccc(CCNS(=O)(=O)[C@@H]2O[C@H](CO)[C@@H](O[C@H]3O[C@H](CO)[C@@H](O)[C@H](O)[C@H]3O)[C@H](O)[C@H]2O)cc1

Solution:
7.6
5.2

----------
Carbonic anhydrase 9 (Homo sapiens, UniProt Q16790): reported Ki for various compounds.
Give bare numbers, in nM.

NS(=O)(=O)c1ccc(CCNS(=O)(=O)[C@@H]2O[C@H](C(=O)O)[C@H](O)[C@H](O)[C@H]2O)cc1
96
CC(=O)OC[C@H]1O[C@@H](SNCCc2ccc(S(N)(=O)=O)cc2)[C@H](OC(C)=O)[C@@H](OC(C)=O)[C@@H]1OC(C)=O
97
NS(=O)(=O)c1ccc(CNS(=O)(=O)[C@@H]2O[C@H](C(=O)O)[C@H](O)[C@H](O)[C@H]2O)cc1
97
NS(=O)(=O)c1ccc(CCNS(=O)(=O)[C@@H]2O[C@H](CO)[C@@H](O[C@H]3O[C@H](CO)[C@@H](O)[C@H](O)[C@H]3O)[C@H](O)[C@H]2O)cc1
81
NS(=O)(=O)c1ccc(CNS(=O)(=O)[C@@H]2O[C@H](CO)[C@@H](O[C@H]3O[C@H](CO)[C@@H](O)[C@H](O)[C@H]3O)[C@H](O)[C@H]2O)cc1
98

Lab note: each compound below needs its Ki filled in.
1. NS(=O)(=O)c1ccc(CCNS(=O)(=O)[C@@H]2O[C@H](CO)[C@@H](O[C@@H]3O[C@H](CO)[C@H](O)[C@H](O)[C@H]3O)[C@H](O)[C@H]2O)cc1
2. CC(=O)OC[C@H]1O[C@@H](SNCCc2ccc(S(N)(=O)=O)cc2)[C@H](OC(C)=O)[C@@H](OC(C)=O)[C@@H]1O[C@H]1O[C@H](COC(C)=O)[C@@H](OC(C)=O)[C@H](OC(C)=O)[C@H]1OC(C)=O
3. CC(=O)OC[C@H]1O[C@@H](O[C@H]2[C@H](OC(C)=O)[C@@H](OC(C)=O)[C@H](S(=O)(=O)NCCc3ccc(S(N)(=O)=O)cc3)O[C@@H]2COC(C)=O)[C@H](OC(C)=O)[C@@H](OC(C)=O)[C@H]1OC(C)=O
4. NS(=O)(=O)c1ccc(CCNS(=O)(=O)[C@@H]2O[C@H](CO)[C@@H](O)[C@H](O)[C@H]2O)cc1

Solution:
100
94
97
84

Lab note: each compound below needs its Ki filled in.
1. CC(=O)OC[C@H]1O[C@@H](SNCCc2ccc(S(N)(=O)=O)cc2)[C@H](OC(C)=O)[C@@H](OC(C)=O)[C@H]1OC(C)=O
2. CC(=O)OC[C@H]1O[C@@H](S(=O)(=O)NCCc2ccc(S(N)(=O)=O)cc2)[C@H](OC(C)=O)[C@@H](OC(C)=O)[C@@H]1O[C@H]1O[C@H](COC(C)=O)[C@@H](OC(C)=O)[C@H](OC(C)=O)[C@H]1OC(C)=O

Solution:
1: 107; 2: 93
